# assayExplanation: PAMPA (parallel artificial membrane permeability assay)
# Format: in vitro ADME
# measurementParameters: PAMPA, pH 6.5
# Method: 4 μL of a phospholipid-organic solvent solution composed of 10% (w/v) of egg lecithin, 0.5% (w/v) of cholesterol and dodecane (all purchased from Fluka) was added to a Millipore 96-well membrane filter (hydrophobic PVDF (polyvinylidene difluoride), pore size 0.45 microm) (purchased from Millipore Japan) to make an artificial phospholipid membrane. […]
Positions of bridges follow the written chain, without caps; N, C: chain ends. Non-standard residues stand in square brackets, D forms with d. Residues, ends and D or L forms follow the SMILES beside them. *: point of attachment. NMeF = CN[C@@H](Cc1ccccc1)C(=O)O; NMeI = CC[C@H](C)[C@H](NC)C(=O)O; NMeL = CN[C@@H](CC(C)C)C(=O)O; NMeV = CN[C@H](C(=O)O)C(C)C; NMeA = CN[C@@H](C)C(=O)O; Piperidide = C1CCN(*)CC1; dNMeA = CN[C@H](C)C(=O)O; Sar = CNCC(=O)O; tBu = CC(C)(C)*
# if measured Papp at 18 hours, 50 µM < 30 ×10⁻⁶ cm/s: Fulfilled  # else: Not fulfilled

>>> classification("CC[C@H](C)[C@@H]1NC(=O)[C@H](CC(C)C)N(C)C(=O)[C@H](C(C)C)N(C)C(=O)[C@H](C)NC(=O)[C@H](C)N(C)C(=O)[C@H](Cc2ccccc2)NC(=O)[C@H]([C@@H](C)O)NC(=O)[C@H](CC(C)C)N(C)C(=O)[C@H](CC(C)C)N(C)C(=O)[C@H](C)N(C)C(=O)C[C@@H](C(=O)N2CCCCC2)NC1=O [DP-112] ([NMeA][NMeL][NMeL]TF[NMeA]A[NMeV][NMeL]ID-Piperidide; lactam N-11)")
"Not fulfilled"
>>> classification("CC(C)C[C@H]1C(=O)NCC(=O)N[C@H](C(=O)N2CCCCC2)CC(=O)N(C)[C@@H](C)C(=O)N[C@@H]([C@@H](C)O)C(=O)N(C)[C@@H](C)C(=O)N(C)[C@@H](Cc2ccccc2)C(=O)N[C@@H](COC(C)(C)C)C(=O)N(C)[C@@H](Cc2ccccc2)C(=O)N1C [DP-79] ([NMeA]T[NMeA][NMeF]S(tBu)[NMeF][NMeL]GD-Piperidide; lactam N-9)")
"Fulfilled"
>>> classification("CC(C)C[C@H]1C(=O)N[C@@H](COC(C)(C)C)C(=O)N[C@H](C(=O)N2CCCCC2)CC(=O)N[C@H](C)C(=O)N(C)[C@@H](C)C(=O)N(C)[C@@H](Cc2ccccc2)C(=O)N(C)[C@@H](CC(C)C)C(=O)N[C@@H]([C@@H](C)O)C(=O)N(C)[C@@H](C)C(=O)N1C [DP-148] ([dA][NMeA][NMeF][NMeL]T[NMeA][NMeL]S(tBu)D-Piperidide; lactam N-9)")
"Not fulfilled"
>>> classification("CC[C@H](C)[C@H]1C(=O)NCC(=O)N[C@H](C(=O)N2CCCCC2)CC(=O)N(C)[C@H](C)C(=O)N[C@@H](Cc2ccccc2)C(=O)N(C)[C@@H](CC(C)C)C(=O)N[C@@H](COC(C)(C)C)C(=O)N[C@@H](Cc2ccccc2)C(=O)N2CCC[C@H]2C(=O)N[C@@H]([C@@H](C)O)C(=O)N[C@@H](CC(C)C)C(=O)N(C)[C@@H](C)C(=O)N1C [DP-62] ([dNMeA]F[NMeL]S(tBu)FPTL[NMeA][NMeI]GD-Piperidide; lactam N-12)")
"Not fulfilled"
>>> classification("CC[C@H](C)[C@H]1C(=O)N[C@H](C(=O)N2CCCCC2)CC(=O)N[C@H](C)C(=O)N[C@@H]([C@@H](C)O)C(=O)N(C)[C@@H](C)C(=O)N(C)[C@@H](C(C)C)C(=O)N[C@@H](Cc2ccccc2)C(=O)N(C)CC(=O)N(C)[C@@H](CC(C)C)C(=O)N[C@@H](C)C(=O)N1C [DP-71] ([dA]T[NMeA][NMeV]F[Sar][NMeL]A[NMeI]D-Piperidide; lactam N-10)")
"Fulfilled"
